- SUBJECT OF TEST: hTRPML2-YFP (Homo sapiens, UniProt Q8IZK6)
- Construct: expressed in transfected cells
- Sequence (Q8IZK6 1-566): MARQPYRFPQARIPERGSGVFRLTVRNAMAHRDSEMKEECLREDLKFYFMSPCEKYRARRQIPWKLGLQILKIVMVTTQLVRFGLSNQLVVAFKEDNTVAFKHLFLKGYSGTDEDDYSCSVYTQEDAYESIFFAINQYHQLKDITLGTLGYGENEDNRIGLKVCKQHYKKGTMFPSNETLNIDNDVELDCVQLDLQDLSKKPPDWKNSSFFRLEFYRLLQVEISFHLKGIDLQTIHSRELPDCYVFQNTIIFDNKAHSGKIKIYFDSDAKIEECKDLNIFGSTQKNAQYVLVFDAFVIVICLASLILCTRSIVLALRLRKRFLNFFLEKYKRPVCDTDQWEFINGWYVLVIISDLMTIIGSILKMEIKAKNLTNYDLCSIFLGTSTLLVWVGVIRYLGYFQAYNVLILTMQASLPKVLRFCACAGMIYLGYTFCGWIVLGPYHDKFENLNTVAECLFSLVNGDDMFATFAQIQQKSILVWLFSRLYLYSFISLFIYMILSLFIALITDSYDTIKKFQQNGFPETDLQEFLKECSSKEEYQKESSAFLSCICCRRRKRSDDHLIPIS
- PROTOCOL TEXT: Fluo-4 Ca2+ influx assay, HEK293 stably expressing hTRPML2-YFP, activated with ML-SA1
- Assay type: cell-based
- MEASUREMENT SETUP: TRPML2 IC50, Fluo-4, 5 µM ML-SA1, Table S1
Kindly state IC50 for each of the entries shown.
Just the number in µM, nothing appended.

What value of IC50 has been reported for the following compound? C[C@]12CC[C@@H]3c4ccc(O)cc4CC[C@H]3[C@@H]1CC[C@@H]2O [Estradiol, 17β-estradiol]
30.4

What value of IC50 has been reported for the following compound? C[C@]12CC[C@@H]3c4ccc(-c5ccccc5)cc4CC[C@H]3[C@@H]1CC[C@@H]2O [PRU-11]
2.4

What value of IC50 has been reported for the following compound? CC(=O)c1ccc2c(c1)CC[C@@H]1[C@@H]2CC[C@]2(C)[C@@H](O)CC[C@@H]12 [PRU-12]
5.28

What value of IC50 has been reported for the following compound? C[C@]12CC[C@@H]3c4ccc(OC(F)F)cc4CC[C@H]3[C@@H]1CC[C@@H]2O [PRU-4]
5.23

What value of IC50 has been reported for the following compound? C[C@]12CC[C@@H]3c4ccc(OS(=O)(=O)C(F)(F)F)cc4CC[C@H]3[C@@H]1CC[C@@H]2O [PRU-9]
2.53

What value of IC50 has been reported for the following compound? C=Cc1ccc2c(c1)CC[C@@H]1[C@@H]2CC[C@]2(C)[C@@H](O)CC[C@@H]12 [PRU-10]
5.4

What value of IC50 has been reported for the following compound? CC(C)Oc1ccc2c(c1)CC[C@@H]1[C@@H]2CC[C@]2(C)[C@@H](O)CC[C@@H]12 [PRU-6]
3.57

What value of IC50 has been reported for the following compound? C[C@]12CC[C@@H]3c4ccc(Oc5ccccc5)cc4CC[C@H]3[C@@H]1CC[C@@H]2O [PRU-8]
15.3

What value of IC50 has been reported for the following compound? CCOc1ccc2c(c1)CC[C@@H]1[C@@H]2CC[C@]2(C)[C@@H](O)CC[C@@H]12 [PRU-5]
3.38

What value of IC50 has been reported for the following compound? C=CCOc1ccc2c(c1)CC[C@@H]1[C@@H]2CC[C@]2(C)[C@@H](O)CC[C@@H]12 [PRU-7]
2.64
